Tested on: DU145 cells
Experiment description: Cell proliferation assay (cell counting), DU145
Type: cell-based, human
Experimental conditions: Homo sapiens, DU-145; basal, 48 h, cell counting; read-out: IC50 of inhibition of basal DU145 cell proliferation
Observed property: IC50 (nM)

# Compound, Value unit, Meas value
data = [
    ("C=C1/C(=C\\C=C2/CCC[C@]3(C)C([C@@H](C)C/C=C/C(O)(CC)CC)=CC[C@@H]23)C[C@@H](O)C[C@@H]1F [Compound 1]", "nM", 0.0221),
]
